Quick reference for log2 fold change among some compounds
ASSAYED_SYSTEM: YOD1 (UniProt Q5VVQ6)
Sequence (Q5VVQ6 whole entry, looked up): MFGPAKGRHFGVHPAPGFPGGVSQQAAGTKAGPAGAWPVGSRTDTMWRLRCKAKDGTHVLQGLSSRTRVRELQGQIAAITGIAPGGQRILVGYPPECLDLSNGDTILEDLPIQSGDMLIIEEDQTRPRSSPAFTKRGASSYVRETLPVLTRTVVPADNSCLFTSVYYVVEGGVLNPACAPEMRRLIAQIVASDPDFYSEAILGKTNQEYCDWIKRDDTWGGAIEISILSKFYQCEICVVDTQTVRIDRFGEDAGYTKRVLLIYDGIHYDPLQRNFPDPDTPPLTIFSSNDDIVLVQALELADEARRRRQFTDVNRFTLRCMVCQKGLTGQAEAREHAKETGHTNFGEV
ASSAY_PROCEDURE: log2 fold change, soluble protein after heating vs DMSO (PISA); higher = thermal stabilisation; K562 cells, 10 uM, 30 min; active = over 0.2 and 3.5 SD of the protein, either way, in both replicates (recomputed)
Targets with a hit are over-represented here; the source holds about 7,900 in all. About 0.6% of all pairs of compound and target were hits.
READOUT: log2 fold change

| COMPOUND | MEASURED_RESULT |
| --- | --- |
| Cn1c2cc(S(C)=O)sc2c2cnn(Cc3cccc(N)c3)c(=O)c21 (centres undefined) | -0.04 |
| Cc1ccc(NC(=O)c2cccc(C(C)(C)C#N)c2)cc1Nc1ccc2ncn(C)c(=O)c2c1 | 0.067 |
| C[C@H](Nc1ncnc2nc[nH]c12)c1cc2cccc(Cl)c2c(=O)n1-c1ccccc1 | 0.033 |
| NC(=O)Nc1cc(-c2cccc(F)c2)sc1C(=O)N[C@H]1CCCNC1 | -0.079 |

====

ASSAYED_SYSTEM: ZMAT2 (UniProt Q96NC0)
Sequence (Q96NC0 whole entry, looked up): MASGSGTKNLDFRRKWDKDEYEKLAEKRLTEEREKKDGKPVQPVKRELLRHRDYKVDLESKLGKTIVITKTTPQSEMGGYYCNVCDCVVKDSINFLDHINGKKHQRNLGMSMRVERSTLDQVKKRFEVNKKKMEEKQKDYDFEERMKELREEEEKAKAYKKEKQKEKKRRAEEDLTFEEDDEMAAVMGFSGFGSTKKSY
ASSAY_PROCEDURE: log2 fold change, soluble protein after heating vs DMSO (PISA); higher = thermal stabilisation; K562 cells, 10 uM, 30 min; active = over 0.2 and 3.5 SD of the protein, either way, in both replicates (recomputed)
Of roughly 7,900 targets only a part is listed; those with a hit were picked by preference. About 0.6% of all pairs of compound and target were hits.
READOUT: log2 fold change

| SMILES_REPRESENTATION | MEASURED_RESULT |
| --- | --- |
| Cc1nc(Nc2ncc(C(=O)Nc3c(C)cccc3Cl)s2)cc(N2CCN(CCO)CC2)n1 | 0.042 |
| CC(=O)c1cnc2ccc(-c3cc(Cl)c(O)c(Cl)c3)nc2c1N[C@H]1CC[C@H](CN(C)C)CC1 | -0.001 |
| Cc1cn(-c2cc(NC(=O)c3ccc(C)c(Nc4nccc(-c5cccnc5)n4)c3)cc(C(F)(F)F)c2)cn1 | 0.012 |
| O=C1NC(=O)C(c2cnc3ccccn23)=C1c1cn2c3c(cc(F)cc13)CN(C(=O)N1CCCCC1)CC2 | 0.012 |
| COc1cccc2cc(-c3nc([C@H]4CC[C@H](C(=O)O)CC4)n4ncnc(N)c34)[nH]c12 | 0.071 |
| Cc1ccc(NC(=O)c2ccc(CN3CC[C@H](N(C)C)C3)c(C(F)(F)F)c2)cc1Nc1nccc(-c2cncnc2)n1 | -0.053 |
| O=C(CCCCCCC(=O)Nc1ccccc1)NO | -0.019 |

====

ASSAYED_SYSTEM: ZCCHC9 (UniProt Q8N567)
Sequence (Q8N567 whole entry, looked up): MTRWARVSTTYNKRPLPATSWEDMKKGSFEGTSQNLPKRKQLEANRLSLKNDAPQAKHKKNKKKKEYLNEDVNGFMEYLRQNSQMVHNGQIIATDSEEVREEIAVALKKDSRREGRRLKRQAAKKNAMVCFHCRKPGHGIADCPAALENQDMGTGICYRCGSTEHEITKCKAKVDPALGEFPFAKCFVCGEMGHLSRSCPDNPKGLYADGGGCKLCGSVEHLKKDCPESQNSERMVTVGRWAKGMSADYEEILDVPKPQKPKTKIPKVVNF
ASSAY_PROCEDURE: log2 fold change, soluble protein after heating vs DMSO (PISA); higher = thermal stabilisation; K562 cells, 10 uM, 30 min; active = over 0.2 and 3.5 SD of the protein, either way, in both replicates (recomputed)
The full data set covers some 7,900 targets. This sample favours those with a hit. About 0.6% of all pairs of compound and target were hits.

| SMILES_REPRESENTATION | ASSAYED_SYSTEM | log2 fold change |
| --- | --- | --- |
| Cc1ccc(NC(=O)c2cccc(C(C)(C)C#N)c2)cc1Nc1ccc2ncn(C)c(=O)c2c1 | ZCCHC9 (UniProt Q8N567) | -0.227 |
| O=C(Nc1cccc(Nc2ncc(Br)c(NCCc3cnc[nH]3)n2)c1)N1CCCC1 | ZCCHC9 (UniProt Q8N567) | 0.08 |
| Cc1ccc(C(=O)N(CCCN)[C@@H](c2nc3cc(Cl)ccc3c(=O)n2Cc2ccccc2)C(C)C)cc1 | ZCCHC9 (UniProt Q8N567) | -0.353 |
| CON(C)C(=O)N1N=C(c2cc(F)ccc2F)S[C@@]1(CCCN)c1ccccc1 | ZCCHC9 (UniProt Q8N567) | 0.527 |
| CS(=O)(=O)N1CCN(Cc2cc3nc(-c4cccc5[nH]ncc45)nc(N4CCOCC4)c3s2)CC1 | ZCCHC9 (UniProt Q8N567) | -0.004 |
| O=C(CCCCCCC(=O)Nc1ccccc1)NO | ZCCHC9 (UniProt Q8N567) | -0.065 |
| CC[C@H](C)n1cc(C)c2c(C(=O)NCc3c(C)cc(C)[nH]c3=O)cc(-c3ccc(N4CCNCC4)nc3)cc21 | ZCCHC9 (UniProt Q8N567) | 0.013 |
| c1cn2cc(-c3ccc4cn[nH]c4c3)nc(Nc3ccc(N4CCOCC4)cc3)c2n1 | ZCCHC9 (UniProt Q8N567) | 0.168 |
| CNC(=O)c1ccccc1Nc1nc(Nc2ccc(N3CCOCC3)cc2OC)ncc1Cl | ZCCHC9 (UniProt Q8N567) | 0.058 |
| CN1CC[C@H](c2c(O)cc(O)c3c(=O)cc(-c4ccccc4Cl)oc23)[C@H](O)C1 | ZCCHC9 (UniProt Q8N567) | 0.321 |
| CNC(=O)c1ccc(Nc2ncc(C(F)(F)F)c(NCc3nccnc3N(C)S(C)(=O)=O)n2)cc1 | ZCCHC9 (UniProt Q8N567) | 0.216 |
| Cc1cn(-c2cc(NC(=O)c3ccc(C)c(Nc4nccc(-c5cccnc5)n4)c3)cc(C(F)(F)F)c2)cn1 | ZCCHC9 (UniProt Q8N567) | -0.046 |
| C/C(=N\NC(=O)c1cccc(S(=O)(=O)N2CCOCC2)c1)c1cc(Cl)ccc1O | ZCCHC9 (UniProt Q8N567) | -0.224 |
| Nc1ccccc1NC(=O)c1ccc(CNC(=O)OCc2cccnc2)cc1 | ZCCHC9 (UniProt Q8N567) | -0.112 |
| C[C@@H](Oc1cc(-c2cnn(C3CCNCC3)c2)cnc1N)c1c(Cl)ccc(F)c1Cl | ZCCHC9 (UniProt Q8N567) | 0.032 |
| NC1(Cc2ccc(Cl)cc2)CCN(c2ncnc3[nH]ccc23)CC1 | ZCCHC9 (UniProt Q8N567) | -0.1 |
| CC(C)C[C@@H](C=O)NC(=O)[C@H](CC(C)C)NC(=O)[C@H](CC(C)C)NC(=O)OCc1ccccc1 | ZCCHC9 (UniProt Q8N567) | 0.305 |
| C[C@@H]1COCCN1c1cc(C2(S(C)(=O)=O)CC2)nc(-c2cccc3[nH]ccc23)n1 | ZCCHC9 (UniProt Q8N567) | -0.381 |
| COC(=O)[C@H](CCSC)NC(=O)c1ccc(NC[C@@H](N)CS)cc1-c1ccccc1 | ZCCHC9 (UniProt Q8N567) | 0.081 |
| CCCCN(Cc1ccc(C(=O)NO)cc1)C(=O)Nc1ccccc1 | ZCCHC9 (UniProt Q8N567) | 0.311 |
| CCCc1cc(C)[nH]c(=O)c1CNC(=O)c1cc(-c2ccnc(N3CCN(C)CC3)c2)cc2c1cnn2C(C)C | ZCCHC9 (UniProt Q8N567) | 0.057 |
| CN1CCc2c(c3ccccc3n2Cc2ccc(C(=O)NO)cc2)C1 | ZCCHC9 (UniProt Q8N567) | 0.103 |
| C#Cc1cccc(Nc2ncnc3cc(OCCOC)c(OCCOC)cc23)c1 | ZCCHC9 (UniProt Q8N567) | -0.099 |
| O=C1NC(=NCc2cccs2)S/C1=C\c1ccc2ncccc2c1 | ZCCHC9 (UniProt Q8N567) | -0.035 |

====

ASSAYED_SYSTEM: ZFAND6 (UniProt Q6FIF0)
Sequence (Q6FIF0 whole entry, looked up): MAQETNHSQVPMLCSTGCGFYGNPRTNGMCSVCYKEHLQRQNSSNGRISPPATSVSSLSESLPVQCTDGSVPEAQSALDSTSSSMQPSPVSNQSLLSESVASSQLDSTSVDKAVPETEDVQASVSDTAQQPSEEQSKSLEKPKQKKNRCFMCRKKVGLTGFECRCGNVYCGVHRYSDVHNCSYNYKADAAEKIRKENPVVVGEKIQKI
ASSAY_PROCEDURE: log2 fold change, soluble protein after heating vs DMSO (PISA); higher = thermal stabilisation; K562 cells, 10 uM, 30 min; active = over 0.2 and 3.5 SD of the protein, either way, in both replicates (recomputed)
The full data set covers some 7,900 targets. This sample favours those with a hit. About 0.6% of all pairs of compound and target were hits.
Quick reference for log2 fold change among some compounds
READOUT: log2 fold change

| COMPOUND | ASSAYED_SYSTEM | READOUT | MEASURED_RESULT |
| --- | --- | --- | --- |
| CON(C)C(=O)N1N=C(c2cc(F)ccc2F)S[C@@]1(CCCN)c1ccccc1 | ZFAND6 (UniProt Q6FIF0) | log2 fold change | -0.111 (inactive) |
| CCN(CCCOc1ccc2c(Nc3cc(CC(=O)Nc4cccc(F)c4)[nH]n3)ncnc2c1)CCOP(=O)(O)O | ZFAND6 (UniProt Q6FIF0) | log2 fold change | 0.04 (inactive) |
| FC(F)(F)c1ccc(/C=C/c2nc(COc3ccc(CCCCn4ccnn4)cc3)co2)cc1 | ZFAND6 (UniProt Q6FIF0) | log2 fold change | 0.017 (inactive) |
| O=C(O)c1ccc2c(c1)nc(Nc1cccc(Cl)c1)c1ccncc12 | ZFAND6 (UniProt Q6FIF0) | log2 fold change | -0.018 (inactive) |
| CC1=C(C(=O)Nc2cc3cn[nH]c3cc2F)C(c2ccc(C(F)(F)F)cc2)CC(=O)N1 (stereo not given) | ZFAND6 (UniProt Q6FIF0) | log2 fold change | -0.013 (inactive) |
| NC1(c2ccc(-c3nc4ccn5c(=O)[nH]nc5c4cc3-c3ccccc3)cc2)CCC1 | ZFAND6 (UniProt Q6FIF0) | log2 fold change | 0.056 (inactive) |
| Cc1nc(Nc2ncc(C(=O)Nc3c(C)cccc3Cl)s2)cc(N2CCN(CCO)CC2)n1 | ZFAND6 (UniProt Q6FIF0) | log2 fold change | 0.03 (inactive) |
| NC(=O)Nc1cc(-c2cccc(F)c2)sc1C(=O)N[C@H]1CCCNC1 | ZFAND6 (UniProt Q6FIF0) | log2 fold change | 0.12 (inactive) |
| O=C1NC(=O)/C(=C\c2ccc3nccnc3c2)S1 | ZFAND6 (UniProt Q6FIF0) | log2 fold change | 0.007 (inactive) |
| NC1(Cc2ccc(Cl)cc2)CCN(c2ncnc3[nH]ccc23)CC1 | ZFAND6 (UniProt Q6FIF0) | log2 fold change | 0.038 (inactive) |
| CN1CCc2c(c3ccccc3n2Cc2ccc(C(=O)NO)cc2)C1 | ZFAND6 (UniProt Q6FIF0) | log2 fold change | 0.144 (inactive) |
| CC[C@H](C)n1cc(C)c2c(C(=O)NCc3c(C)cc(C)[nH]c3=O)cc(-c3ccc(N4CCNCC4)nc3)cc21 | ZFAND6 (UniProt Q6FIF0) | log2 fold change | -0.05 (inactive) |
| CC(C)c1cnn2c(NCc3ccccc3)cc(NCCCCCCN)nc12 | ZFAND6 (UniProt Q6FIF0) | log2 fold change | 0.075 (inactive) |
| O=C1NC(=O)C(c2cnc3ccccn23)=C1c1cn2c3c(cc(F)cc13)CN(C(=O)N1CCCCC1)CC2 | ZFAND6 (UniProt Q6FIF0) | log2 fold change | -0.013 (inactive) |
| CC(C)(O)CC(=O)NCCn1ccc2ncnc(Nc3ccc(Oc4cccc(C(F)(F)F)c4)c(Cl)c3)c21 | ZFAND6 (UniProt Q6FIF0) | log2 fold change | 0.015 (inactive) |
| C=CC(=O)N1CCC[C@@H](n2nc(-c3ccc(Oc4ccccc4)cc3)c3c(N)ncnc32)C1 | ZFAND6 (UniProt Q6FIF0) | log2 fold change | 0.006 (inactive) |
| CC(C)N(C[C@H]1O[C@@H](n2cnc3c(N)ncnc32)[C@H](O)[C@@H]1O)[C@H]1C[C@@H](CCc2nc3cc(C(C)(C)C)ccc3[nH]2)C1 | ZFAND6 (UniProt Q6FIF0) | log2 fold change | -0.048 (inactive) |
| CS(=O)(=O)c1ccc(-c2cnc(N)c(C(=O)Nc3ccccc3)n2)cc1 | ZFAND6 (UniProt Q6FIF0) | log2 fold change | -0.036 (inactive) |
| C[C@H](Nc1ncnc2nc[nH]c12)c1cc2cccc(Cl)c2c(=O)n1-c1ccccc1 | ZFAND6 (UniProt Q6FIF0) | log2 fold change | 0.032 (inactive) |
| CN1CCN(CCOc2cc(OC3CCOCC3)c3c(Nc4c(Cl)ccc5c4OCO5)ncnc3c2)CC1 | ZFAND6 (UniProt Q6FIF0) | log2 fold change | -0.035 (inactive) |
| Cc1ccc(C(=O)N(CCCN)[C@@H](c2nc3cc(Cl)ccc3c(=O)n2Cc2ccccc2)C(C)C)cc1 | ZFAND6 (UniProt Q6FIF0) | log2 fold change | -0.082 (inactive) |
| CCCS(=O)(=O)Nc1ccc(F)c(C(=O)c2c[nH]c3ncc(Cl)cc23)c1F | ZFAND6 (UniProt Q6FIF0) | log2 fold change | 0.002 (inactive) |
| CCCc1cc(C)[nH]c(=O)c1CNC(=O)c1cc(-c2ccnc(N3CCN(C)CC3)c2)cc2c1cnn2C(C)C | ZFAND6 (UniProt Q6FIF0) | log2 fold change | -0.051 (inactive) |
| Cc1cn(-c2cc(NC(=O)c3ccc(C)c(Nc4nccc(-c5cccnc5)n4)c3)cc(C(F)(F)F)c2)cn1 | ZFAND6 (UniProt Q6FIF0) | log2 fold change | 0.014 (inactive) |
| CCCCN(Cc1ccc(C(=O)NO)cc1)C(=O)Nc1ccccc1 | ZFAND6 (UniProt Q6FIF0) | log2 fold change | 0.027 (inactive) |
